TARGET_DESC: AM2 S31 (wild-type serine at position 31 in the M2 protein), influenza virus A/Udorn/72 (Influenza A virus, UniProt P0DOF5)
Sequence (P0DOF5 whole entry, looked up): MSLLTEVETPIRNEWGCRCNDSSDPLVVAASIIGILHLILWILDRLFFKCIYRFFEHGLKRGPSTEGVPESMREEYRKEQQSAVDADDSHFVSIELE
METHOD_NOTES: cell-based
TEST_CONDITIONS: 100 uM; Xenopus oocytes; activity range class; read-out: S31 OOcyte Inhibition at 100 uM (%)
MEASURED_QUANTITY: inhibition at 100 µM

Consider the reported inhibition at 100 µM for these molecules:
MOLECULE	MEASURED_QUANTITY	MEASURED_RESULT
COC(=O)c1ccc(-c2ccc(CNC34CC5CC(CC(O)(C5)C3)C4)cc2)cc1 [Example 190a]	inhibition at 100 µM	0 to 30%
c1ccc(-c2cc(CNC34CC5CC(CC(C5)C3)C4)on2)cc1 [Example 164a]	inhibition at 100 µM	0 to 30%
C[Si](C)(C)c1ccc(CNC23CC4CC(CC(C4)C2)C3)cc1	inhibition at 100 µM	0 to 30%
Oc1cc(OCc2ccccc2)ccc1CNC12CC3CC(CC(C3)C1)C2 [Example 37a]	inhibition at 100 µM	31 to 95%
c1ccc(-c2ncc(CNC34CC5CC(CC(C5)C3)C4)cn2)cc1 [Example 63a]	inhibition at 100 µM	0 to 30%

Reported inhibition at 100 µM, molecule Brc1nc(CNC23CC4CC(CC(C4)C2)C3)cs1 [Example 83a] : ____
31 to 95%

Follow-up item: Brc1csc(CNC23CC4CC(CC(C4)C2)C3)c1 [Example 105a]
31 to 95%

Follow-up item: c1ccc(-c2nnc(CNC34CC5CC(CC(C5)C3)C4)o2)cc1 [Example 115a]
0 to 30%

Follow-up item: c1csc(-c2ncc(CNC34CC5CC(CC(C5)C3)C4)s2)c1 [Example 144a]
0 to 30%

* * *

TARGET_DESC: AM2 S31 (wild-type serine at position 31 in the M2 protein), influenza virus A/Udorn/72 (Influenza A virus)
METHOD_NOTES: cell-based
TEST_CONDITIONS: 100 uM; Xenopus oocytes; activity range class; read-out: S31 OOcyte Inhibition at 100 uM (%)
MEASURED_QUANTITY: inhibition at 100 µM

Consider the reported inhibition at 100 µM for these compounds:
COMPOUND	inhibition at 100 µM
c1csc(-c2ccc(CNC34CC5CC(CC(C5)C3)C4)nc2)c1 [Example 55a]	31 to 95%
Clc1ccc(COc2ccc(CNC34CC5CC(CC(C5)C3)C4)cc2)cc1 [Example 16a]	31 to 95%
CC(NC12CC3CC(CC(C3)C1)C2)c1ccc(I)s1 (stereo not shown) [Example 82a]	31 to 95%

Reported inhibition at 100 µM, compound c1csc(-c2ccc(CNC34CC5CC(CC(C5)C3)C4)cn2)c1 [Example 58a] : ____
31 to 95%

Follow-up item: c1ccc(-c2nc(CNC34CC5CC(CC(C5)C3)C4)no2)cc1 [Example 131a]
0 to 30%

Follow-up item: c1cncc(-c2noc(CNC34CC5CC(CC(C5)C3)C4)n2)c1 [Example 135a]
0 to 30%

Follow-up item: c1ccn2c(CNC34CC5CC(CC(C5)C3)C4)cnc2c1 [Example 203a]
31 to 95%

Follow-up item: Cc1csc2sc(CNC34CC5CC(CC(C5)C3)C4)c(C)c12 [Example 176a]
0 to 30%

Follow-up item: COc1ccc(-c2nc(CNC34CC5CC(CC(C5)C3)C4)no2)cc1 [Example 126a]
0 to 30%

Follow-up item: FC(F)(F)c1ccc(-c2nc(CNC34CC5CC(CC(C5)C3)C4)no2)cc1 [Example 129a]
0 to 30%

Follow-up item: Oc1cc(-c2cc3ccccc3o2)ccc1CNC12CC3CC(CC(C3)C1)C2 [Example 48a]
0 to 30%

Follow-up item: Cc1ccc(CNC23CC4CC(CC(C4)C2)C3)o1 [Example 67a]
31 to 95%

Follow-up item: Brc1ncc(CNC23CC4CC(CC(C4)C2)C3)s1 [Example 104a]
0 to 30%

Follow-up item: CC(C)n1cc(CNC23CC4CC(CC(C4)C2)C3)cn1 [Example 85a]
0 to 30%

Follow-up item: c1cc(-c2ccc(CNC34CC5CC(CC(C5)C3)C4)s2)co1 [Example 137a]
0 to 30%

Follow-up item: c1cnc2ccc(CNC34CC5CC(CC(C5)C3)C4)cc2c1 [Example 39a, Adamantan-1-yl-quinolin-6-ylmethyl-amine]
0 to 30%

Entry source: patent US9884832B2
